tgt: ERα (Homo sapiens)
Sequence (P03372 1-595): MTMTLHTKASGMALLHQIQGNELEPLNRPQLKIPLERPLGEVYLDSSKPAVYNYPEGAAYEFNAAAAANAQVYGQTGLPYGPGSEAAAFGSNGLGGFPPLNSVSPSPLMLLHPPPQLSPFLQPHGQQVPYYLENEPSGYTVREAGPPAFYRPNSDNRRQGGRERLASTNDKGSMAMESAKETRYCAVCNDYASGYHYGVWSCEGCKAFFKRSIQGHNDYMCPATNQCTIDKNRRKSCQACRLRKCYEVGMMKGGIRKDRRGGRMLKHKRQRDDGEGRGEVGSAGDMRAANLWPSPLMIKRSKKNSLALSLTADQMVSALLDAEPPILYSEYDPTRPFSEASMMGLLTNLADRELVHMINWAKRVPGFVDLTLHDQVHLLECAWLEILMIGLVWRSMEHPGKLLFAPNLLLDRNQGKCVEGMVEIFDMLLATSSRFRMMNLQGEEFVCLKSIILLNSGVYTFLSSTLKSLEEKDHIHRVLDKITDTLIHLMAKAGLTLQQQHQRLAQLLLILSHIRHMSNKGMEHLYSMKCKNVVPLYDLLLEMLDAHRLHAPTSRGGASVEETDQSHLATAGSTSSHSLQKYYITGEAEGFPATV
experiment-description: ThermoFluor thermal shift assay, ERα
Assay type: binding
measured-parameter: pKd
pKd here: minus log base 10 of the concentration, concentration in moles per litre.

Recorded pKd for C[C@]12CC[C@H]3[C@@H](CCC4=C[C@H](O)CC[C@@H]43)[C@@H]1CC[C@@H]2O [4-estrene-3-α-17-β-diol] , please?
5.90

* * *

Each entry below carries its recorded ΔTm at 100 µM.
tgt: ligand binding domain of ERRγ (Homo sapiens)
Construct: 6His; made in house; host or cells: E. coli BL21(DE3)
Sequence (P62508 229-458): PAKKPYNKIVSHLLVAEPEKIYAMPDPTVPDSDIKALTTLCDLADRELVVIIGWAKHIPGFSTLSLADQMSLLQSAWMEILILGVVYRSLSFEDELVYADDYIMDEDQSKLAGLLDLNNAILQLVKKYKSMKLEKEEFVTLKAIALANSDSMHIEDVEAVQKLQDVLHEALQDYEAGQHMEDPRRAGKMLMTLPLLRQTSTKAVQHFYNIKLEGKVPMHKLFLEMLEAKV
experiment-description: ThermoFluor thermal shift assay, ERRγ ligand binding domain
details: 100 μM test compound; 0.1 mg/mL protein, 25 mM HEPES pH 8.0; Tm free protein 49.6 °C; read-out: ΔTm, thermal stabilization of ERRγ
Note: unit °C is implicit; provide only the numeric part.

Fill in the recorded ΔTm at 100 µM for this molecule, with ligand binding domain of ERRγ (Homo sapiens) as test system: `CCc1cc(O)ccc1Cl`
4.1

Give ligand binding domain of ERRγ (Homo sapiens) ΔTm at 100 µM for `O=c1c(-c2ccc(O)cc2)coc2cc(O)ccc12`
-0.1

Please provide the recorded ΔTm at 100 µM for C[C@]12CC[C@@H]3c4ccc(O)cc4C[C@@H](CCCCCCCCC[S+]([O-])CCCC(F)(F)C(F)(F)F)[C@H]3[C@@H]1CC[C@@H]2O (stereo partly shown) , tested on ligand binding domain of ERRγ (Homo sapiens).
0

What ΔTm at 100 µM appears in the records for this molecule with ligand binding domain of ERRγ (Homo sapiens)? `C[C@]12CC[C@H]3[C@@H](CCC4=C[C@H](O)CC[C@@H]43)[C@@H]1CC[C@@H]2O`
-0.1

* * *

tgt: ligand binding domain of ERRγ (Homo sapiens)
Construct: 6His; made in house; host or cells: E. coli BL21(DE3)
experiment-description: ThermoFluor thermal shift assay, ERRγ ligand binding domain
details: read-out: Estimated dissociation constant, ERRγ
measured-parameter: Kd

What reported Kd corresponds to CCc1cc(O)ccc1Cl [4chloro-3ethyl-phenol] on ligand binding domain of ERRγ (Homo sapiens)?
722 nM
